Source: PubChem BioAssay AID1259371

- test_system: UniProtKB O75030
- experimental_details: MITF inhibitors, potency by titration, dose response, biochemical, AlphaScreen, human (AID 1259371)
- test_conditions: AlphaScreen biochemical MITF assay, signal inhibition
Calls of active or inactive are those of the source. How the calls were made is not given here.
Possible outcomes: 1 (yes) for active, 0 (no) for inactive

1. O=C(/C=C/c1ccco1)ON1C(=O)c2ccccc2C1=O
0 (no)
2. NC(=O)c1ccccc1NC(=S)NC(=O)/C=C/c1ccco1
1 (yes)
3. CCOC(=O)N1CCN(C(=S)Nc2ccc(OCC)cc2)CC1
0 (no)
4. c1ccc2c(c1)ncn2CC1CCN(Cc2cn3ccccc3n2)CC1
0 (no)
5. O=C(Nc1ccc(C(=O)Nc2ccc(C(=O)Nc3ccc(S(=O)(=O)O)c4cc(S(=O)(=O)O)cc(S(=O)(=O)O)c34)cc2)cc1)Nc1ccc(C(=O)Nc2ccc(C(=O)Nc3ccc(S(=O)(=O)O)c4cc(S(=O)(=O)O)cc(S(=O)(=O)O)c34)cc2)cc1
1 (yes)
6. O=P(O)(O)C(O)(CCNC(=S)Nc1ccccc1)P(=O)(O)O
0 (no)
7. CN(C)c1ccc(O)c2c1C[C@H]1C[C@H]3[C@H](N(C)C)C(=O)C(C(N)=O)=C(O)[C@@]3(O)C(=O)C1=C2O
1 (yes)
8. COc1ccc2c(c1)CC(C(=O)Nc1ccc(-c3cn[nH]c3)cc1C(=O)N(C)OC)CO2 (stereo not drawn)
0 (no)

---

- test_system: Microphthalmia-associated transcription factor (Homo sapiens)
- experimental_details: MITF inhibitors, potency by titration, dose response, biochemical, AlphaScreen, human (AID 1259371)
- test_conditions: AlphaScreen biochemical MITF assay, signal inhibition
Activity calls are given as the source filed them. The rule behind the calls is not given here.
Possible outcomes: active, inactive

1. COc1ccc(/C=C2\N=C(c3ccc4c(c3)OCO4)OC2=O)cc1Cl
active
2. O=C1N[C@@H](Cc2ccccc2)C(=O)N2CCN(C(=O)NC3CCCCC3)C[C@H]12
inactive
3. O=C(c1ccncc1)N1C2C=CC(C2)C1(C(F)(F)F)C(F)(F)F (stereo not given)
inactive
4. O=C1Nc2ccc(S(=O)(=O)NCc3ccccc3)cc2C1=O
inactive
5. C[C@@H](O)[C@@H]1NC(=O)[C@H]2CN(C(=O)NCc3ccccc3)CCN2C1=O
inactive

---

- test_system: Microphthalmia-associated transcription factor (Homo sapiens) (UniProt O75030)
- Sequence (O75030 whole entry, looked up): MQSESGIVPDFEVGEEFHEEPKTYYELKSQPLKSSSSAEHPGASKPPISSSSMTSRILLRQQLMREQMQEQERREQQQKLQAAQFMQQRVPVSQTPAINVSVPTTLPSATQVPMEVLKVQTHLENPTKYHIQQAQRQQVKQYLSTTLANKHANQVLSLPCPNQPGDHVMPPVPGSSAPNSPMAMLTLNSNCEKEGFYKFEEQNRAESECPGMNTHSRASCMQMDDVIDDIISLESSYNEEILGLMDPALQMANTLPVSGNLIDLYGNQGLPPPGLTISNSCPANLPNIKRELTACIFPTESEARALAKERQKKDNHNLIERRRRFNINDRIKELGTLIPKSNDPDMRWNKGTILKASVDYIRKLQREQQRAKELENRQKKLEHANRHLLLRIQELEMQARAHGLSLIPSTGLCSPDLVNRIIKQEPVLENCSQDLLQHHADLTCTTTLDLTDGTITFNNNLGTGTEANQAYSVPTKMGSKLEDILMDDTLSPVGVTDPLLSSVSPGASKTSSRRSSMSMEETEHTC
- experimental_details: MITF inhibitors, potency by titration, dose response, biochemical, AlphaScreen, human (AID 1259371)
- test_conditions: AlphaScreen biochemical MITF assay, signal inhibition
Activity calls are given as the source filed them. No rule for the calls is given here.
metric_name: IC50

1. NC(=O)/C(=C\c1cccc([N+](=O)[O-])c1)NC(=O)c1ccc(Br)cc1
> 6.48 µM (inactive)
2. CC(=O)Oc1cc(C(=O)OCC(=O)Nc2ccc(C)cc2)cc(OC(C)=O)c1OC(C)=O
inactive
3. CN1C(=O)[C@H]2CN(C(=O)NC3CCCCC3)CCN2C(=O)[C@@H]1CO
> 6.48 µM (inactive)
4. O=C1N[C@@H](Cc2ccc(O)cc2)C(=O)N2CCN(C(=O)NC3CCCCC3)C[C@H]12
> 2.16 µM (inactive)
5. O=C(COc1ccccc1C(=O)OC1CCCC1=O)Nc1cccc(C(F)(F)F)c1 (stereo not given)
inactive

---

- test_system: Microphthalmia-associated transcription factor (Homo sapiens) (UniProt O75030)
- experimental_details: MITF inhibitors, potency by titration, dose response, biochemical, AlphaScreen, human (AID 1259371)
- test_conditions: AlphaScreen biochemical MITF assay, signal inhibition
The source made the active and inactive calls. How the calls were made is not given here.
metric_name: IC50

1) COc1cc(N2CCOCC2)ccc1Nc1cc(NC(C)(C)c2ccccc2)c(C(F)(F)F)cn1
inactive
2) O=C(Nc1ccc(-c2cn[nH]c2)c(C(F)(F)F)c1)C1COc2ccccc2O1 (centres undefined)
> 2160 nM (inactive)
3) CSc1ccc(C(=O)O)s1
inactive
4) CCN(CC)c1ncnc2c1ncn2[C@@H]1O[C@H](COP(=O)(O)OP(=O)(O)C(Br)(Br)P(=O)(O)O)C(O)[C@@H]1O (some centres undefined)
175 nM

---

- test_system: Microphthalmia-associated transcription factor (Homo sapiens) (UniProt O75030)
- experimental_details: MITF inhibitors, potency by titration, dose response, biochemical, AlphaScreen, human (AID 1259371)
- test_conditions: AlphaScreen biochemical MITF assay, signal inhibition
Calls of active or inactive are those of the source. No rule for the calls is given here.
Possible outcomes: active, inactive

1. COc1ccc2nc(-c3ccco3)c(-c3ccco3)nc2c1
inactive
2. COc1cccc(CC(=O)Nc2nnc(-c3ccco3)c(-c3ccco3)n2)c1
active
3. O=C(OCN1C(=O)c2ccccc2C1=O)c1cc2c(s1)CCC2
active
4. O=C(O)COc1ccc(-n2cccc2)cc1
active
5. O=C(/C=C/c1ccco1)NC(=S)Nc1ccc(Cl)c(C(=O)O)c1
active
6. Cc1cc(C)n(C(=O)/C=C/c2ccco2)n1
active
7. CCCCOc1ccc(C(=O)N/C(=C/c2ccco2)C(=O)O)cc1
inactive

---

- test_system: Microphthalmia-associated transcription factor (Homo sapiens)
- experimental_details: MITF inhibitors, potency by titration, dose response, biochemical, AlphaScreen, human (AID 1259371)
- test_conditions: AlphaScreen biochemical MITF assay, signal inhibition
The source made the active and inactive calls. The rule behind the calls is not given here.
Possible outcomes: active, inactive

1) O=C(CCCCC1SCC2NC(=O)NC21)NC1(c2ccc(F)cc2)CCCC1 (configuration not stated)
inactive
2) CC(=O)Oc1ccccc1N1C(=O)c2ccc(Oc3cccc(N)c3)cc2C1=O
active
3) CCOc1ncccc1C(=O)OCC(=O)Nc1oc(-c2ccco2)c(-c2ccco2)c1C#N
active
4) N#Cc1c(-c2ccco2)cc(-c2ccco2)nc1N
active
5) Brc1c(OCCN2CCNCC2)ccc2ccccc12
inactive
6) CCCCNCCOc1ccccc1OCC
inactive
7) CN(C)C(=O)N1CCN(S(=O)(=O)c2cccc([N+](=O)[O-])c2)CC1
inactive
8) CC(=O)NC1=NC(=O)/C(=C\c2ccc(Br)o2)S1
active
9) Cc1cc2ncn(Cc3noc(-c4ccco4)n3)c2cc1C
inactive
10) O=C(Nc1ccc(Cl)cc1Cl)N1CCN2C(=O)[C@@H]3CSCN3C(=O)[C@H]2C1
inactive
11) O=C(NCc1ccccc1)N1CCN2C(=O)[C@@H]3CCCN3C(=O)[C@H]2C1
inactive
12) CN1C(=O)[C@H]2CN(C(=O)NC3CCCCC3)CCN2C(=O)[C@@H]1Cc1ccccc1
inactive
13) Cc1ccc(/C=C/C(=O)NCc2ccccn2)o1
inactive
14) O=C(O)c1ccc(O)c(C=Nc2ccc(N=Cc3cc(C(=O)O)ccc3O)cc2)c1
inactive
15) COc1cc(OC)c(CN2CCCC(O)C2)cc1Br (configuration not stated)
inactive
16) CN(C)CCN(C(=O)OCc1ccccc1)c1cc(-c2cn[nH]c2)ccc1NC(=O)OCc1ccccc1
inactive
17) O=C(O)CCCNC(=O)/C=C/c1ccco1
inactive
18) CC[C@@H]1NC(=O)[C@H]2CN(C(=O)NCc3ccccc3)CCN2C1=O
active
19) Cc1[nH][nH]c(=O)c1C(c1ccccc1OCc1ccc(Br)cc1)c1c(C)[nH][nH]c1=O
inactive
20) NC(=O)c1ccc(-c2cccs2)s1
inactive
21) O=C(COC(=O)/C=C/c1ccco1)NCc1ccco1
active
22) Cc1sc2nc(C)n3c(=O)n(CC(=O)NCc4ccco4)nc3c2c1C
inactive
23) CCC(C)c1ccccc1OCCNCCN(C)C (configuration not stated)
inactive
24) CC[C@H](C)[C@@H]1NC(=O)[C@H]2CN(C(=O)NCc3ccccc3)CCN2C1=O
inactive
25) Cc1ccc(C(=O)Nc2ccc([N+](=O)[O-])cn2)o1
inactive
26) O=C(c1ccc2nc(-c3ccco3)c(-c3ccco3)nc2c1)N1CCSCC1
active
27) O=C(Nc1ccc(N2CCOCC2)cc1)c1ccc2nc(-c3cccs3)sc2c1
inactive

---

- test_system: Microphthalmia-associated transcription factor (Homo sapiens)
- experimental_details: MITF inhibitors, potency by titration, dose response, biochemical, AlphaScreen, human (AID 1259371)
- test_conditions: AlphaScreen biochemical MITF assay, signal inhibition
Active and inactive are the calls of the source. The rule behind the calls is not given here.
Possible outcomes: class 1 for active, class 0 for inactive

1) CN(C)CCOCCOc1ccccc1-c1ccccc1
class 0
2) S=c1[nH]nc(-c2cccnc2)n1/N=C/C=C/c1ccco1
class 1
3) O=c1[nH]c(/C=C/c2ccco2)nc(O)c1[N+](=O)[O-]
class 1
4) CN(c1cccc(NS(=O)(=O)c2ccc([N+](=O)[O-])cc2)c1)S(C)(=O)=O
class 0
5) O=C(/C=C/c1ccco1)NCc1cccc(CNC(=O)/C=C/c2ccco2)c1
class 1
6) O=C(O)CCC(NCc1ccco1)C(=O)O (stereo not given)
class 1
7) c1ccc(-c2ccc(OCCCCn3cncn3)cc2)cc1
class 0
8) Cc1[nH][nH]c(=O)c1C(c1ccc([N+](=O)[O-])o1)c1c(C)[nH][nH]c1=O
class 0
9) COc1cccc(CN2CCC(CNc3ccc(-c4ccncc4)cc3)C2)c1 (stereo not given)
class 1
10) O=C(OC1CCCC1=O)c1ccc(S(=O)(=O)N2CCCCC2)cc1 (stereo not given)
class 0
